Numbers sourced from patent US20220135687A1.

biological target: T1, His-tagged PD-L1 ECD protein (ACROBiosystems) (human, UniProt Q9NZQ7 19-238); experiment: SPR, supernatant IgG captured, PD-L1-His analyte
T1 construct: Bought protein; also called PD-L1-His; PD-L1/His; not shown: His tag
T1 sequence (Q9NZQ7 19-238): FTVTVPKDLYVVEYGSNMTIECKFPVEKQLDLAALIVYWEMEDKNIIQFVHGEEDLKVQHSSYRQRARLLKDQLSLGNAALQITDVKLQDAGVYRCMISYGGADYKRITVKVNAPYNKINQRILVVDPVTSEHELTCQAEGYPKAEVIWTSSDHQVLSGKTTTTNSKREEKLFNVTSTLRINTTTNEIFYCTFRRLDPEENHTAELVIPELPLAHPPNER

binder: 53C1_VH.M3-VL.M1 (antibody, human IgG1, kappa, N297A, V domains shown, Chimeric mutant (VH N57Q, VL K24R in the entries); human IgG1 effector-less Fc, kappa) VH: QVQLQQSGNELARPGASVRLSCKASGYIFTGYGITWVRQRPGQGLEWIGEIFPRRVQTYYSEKFKGRATLTADISSSTAYMELRSLTSEDSAVYFCARDYDPYFALDYWGQGTSVTVSS VL: DIVMTQSHKFMSTSVGDRVSITCRASQDVSTAVDWYQQKPGQSPKLLIYSASYRYTGVPDRFTGSGSGTAFTFTISGEQAEDLAVYYCQQHYSIPFTFGGGTKLEIKR
Kd: 0.56 nM
//
binder: 53C1_VH.M2-VL.M1 (antibody, human IgG1, kappa, N297A, V domains shown, Chimeric mutant (VH N57A, VL K24R in the entries); human IgG1 effector-less Fc, kappa) VH: QVQLQQSGNELARPGASVRLSCKASGYIFTGYGITWVRQRPGQGLEWIGEIFPRRVATYYSEKFKGRATLTADISSSTAYMELRSLTSEDSAVYFCARDYDPYFALDYWGQGTSVTVSS VL: DIVMTQSHKFMSTSVGDRVSITCRASQDVSTAVDWYQQKPGQSPKLLIYSASYRYTGVPDRFTGSGSGTAFTFTISGEQAEDLAVYYCQQHYSIPFTFGGGTKLEIKR
Kd: 0.94 nM
//
binder: 53C1_VH.M3-VL (antibody, human IgG1, kappa, N297A, V domains shown, Chimeric mutant, VH N57Q in the entry; human IgG1 effector-less Fc, kappa) VH: QVQLQQSGNELARPGASVRLSCKASGYIFTGYGITWVRQRPGQGLEWIGEIFPRRVQTYYSEKFKGRATLTADISSSTAYMELRSLTSEDSAVYFCARDYDPYFALDYWGQGTSVTVSS VL: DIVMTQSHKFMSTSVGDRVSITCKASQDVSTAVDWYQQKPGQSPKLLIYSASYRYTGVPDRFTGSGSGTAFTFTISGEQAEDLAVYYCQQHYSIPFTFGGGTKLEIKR
Kd: 0.53 nM
//
binder: 29A8_chimeric (antibody, human IgG1, kappa, N297A, V domains shown, Human IgG1 with effector-less Fc mutations, human kappa; also called chimeric 29A8H8C7) VH: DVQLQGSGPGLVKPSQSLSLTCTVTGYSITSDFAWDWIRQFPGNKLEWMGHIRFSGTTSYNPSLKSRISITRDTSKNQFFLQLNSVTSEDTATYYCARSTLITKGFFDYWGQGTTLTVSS VL: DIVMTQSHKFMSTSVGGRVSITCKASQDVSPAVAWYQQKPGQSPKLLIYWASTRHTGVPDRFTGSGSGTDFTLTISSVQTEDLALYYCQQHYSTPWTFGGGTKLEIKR
Kd: 0.32 nM
//
binder: 53C1_VH.M1-VL.M1 (antibody, human IgG1, kappa, N297A, V domains shown, Chimeric mutant (VH N57S, VL K24R in the entries); human IgG1 effector-less Fc, kappa) VH: QVQLQQSGNELARPGASVRLSCKASGYIFTGYGITWVRQRPGQGLEWIGEIFPRRVSTYYSEKFKGRATLTADISSSTAYMELRSLTSEDSAVYFCARDYDPYFALDYWGQGTSVTVSS VL: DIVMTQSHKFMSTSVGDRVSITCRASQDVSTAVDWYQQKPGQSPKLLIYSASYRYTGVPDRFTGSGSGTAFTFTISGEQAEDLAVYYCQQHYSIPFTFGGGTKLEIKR
Kd: 0.86 nM
